Every entry's value here was drawn from ChEMBL document CHEMBL3046688.

Activity by entry:
tested on: MCF7; test: Cytotoxicity against Homo sapiens (human) MCF7 cells at 100 uM after 48 hr by SRB assay relative to control; type: cell-based; details: mcf7, 48 h
endpoint_name: Activity (%)

[[record]]
compound = "c1cc(N2CCN(c3ccc(C4=NCCCN4)cc3)CC2)ccc1C1=NCCCN1"
target_or_test_system = "MCF7"
endpoint_name = "Activity"
units_text = "%"
observed_measurement = 77

[[record]]
compound = "N=C(N)c1ccc(COc2ccccc2OCc2ccc(C(=N)N)cc2)cc1"
target_or_test_system = "MCF7"
endpoint_name = "Activity"
units_text = "%"
observed_measurement = 42

[[record]]
compound = "N=C(N)c1ccc(NC(=O)CCCC(=O)Nc2ccc(C(=N)N)cc2)cc1"
target_or_test_system = "MCF7"
endpoint_name = "Activity"
units_text = "%"
observed_measurement = 122

[[record]]
compound = "N=C(N)c1ccc(NC(=O)CCCCC(=O)Nc2ccc(C(=N)N)cc2)cc1"
target_or_test_system = "MCF7"
endpoint_name = "Activity"
units_text = "%"
observed_measurement = 34

[[record]]
compound = "N=C(NC1CC1)c1ccc(N2CCN(c3ccc(C(=N)NC4CC4)cc3)CC2)cc1"
target_or_test_system = "MCF7"
endpoint_name = "Activity"
units_text = "%"
observed_measurement = 108

[[record]]
compound = "CCCCNC(=N)c1ccc(N2CCCN(c3ccc(C(=N)NCCCC)cc3)CC2)cc1"
target_or_test_system = "MCF7"
endpoint_name = "Activity"
units_text = "%"
observed_measurement = 39

[[record]]
compound = "N#Cc1ccc(N2CCCN(c3ccc(C#N)cc3)CC2)cc1"
target_or_test_system = "MCF7"
endpoint_name = "Activity"
units_text = "%"
observed_measurement = 70

[[record]]
compound = "N#Cc1ccc(N2CCN(c3ccc(C#N)cc3)CC2)cc1"
target_or_test_system = "MCF7"
endpoint_name = "Activity"
units_text = "%"
observed_measurement = 102

[[record]]
compound = "c1cc(N2CCCN(c3ccc(C4=NCCCN4)cc3)CC2)ccc1C1=NCCCN1"
target_or_test_system = "MCF7"
endpoint_name = "Activity"
units_text = "%"
observed_measurement = 42

[[record]]
compound = "N=C(N)c1ccc(N2CCCN(c3ccc(C(=N)N)cc3)CC2)cc1"
target_or_test_system = "MCF7"
endpoint_name = "Activity"
units_text = "%"
observed_measurement = 87

[[record]]
compound = "N=C(N)c1ccc(OC(=O)c2ccc(C(=O)Oc3ccc(C(=N)N)cc3)cc2)cc1 [BIS(4-CARBAMIMIDOYLPHENYL)TEREPHTHALATE]"
target_or_test_system = "MCF7"
endpoint_name = "Activity"
units_text = "%"
observed_measurement = 79

[[record]]
compound = "N=C(N)c1ccc(OCc2cccc(COc3ccc(C(=N)N)cc3)c2)cc1"
target_or_test_system = "MCF7"
endpoint_name = "Activity"
units_text = "%"
observed_measurement = 0

[[record]]
compound = "N=C(NC1CC1)c1ccc(N2CCCN(c3ccc(C(=N)NC4CC4)cc3)CC2)cc1"
target_or_test_system = "MCF7"
endpoint_name = "Activity"
units_text = "%"
observed_measurement = 87


----------
assay: Binding affinity to Poly (dA-dT) DNA at 1:5 compound to DNA base pair ratio
endpoint_name: ΔTm (°C)

[[record]]
chem_smiles = "N=C(N)c1ccc(COc2ccccc2OCc2ccc(C(=N)N)cc2)cc1"
endpoint_name = "ΔTm"
observed_measurement = -0.1

[[record]]
chem_smiles = "N=C(N)c1ccc(N2CCCN(c3ccc(C(=N)N)cc3)CC2)cc1"
endpoint_name = "ΔTm"
observed_measurement = 23.1

[[record]]
chem_smiles = "N#Cc1ccc(N2CCN(c3ccc(C#N)cc3)CC2)cc1"
endpoint_name = "ΔTm"
observed_measurement = -0.2

[[record]]
chem_smiles = "N=C(N)c1ccc(NC(=O)CCCC(=O)Nc2ccc(C(=N)N)cc2)cc1"
endpoint_name = "ΔTm"
observed_measurement = 11.4


----------
Reported ΔTm values for a set of compounds
tested on: DNA; assay: Binding affinity to Bos taurus (calf) thymus DNA at 1:5 compound to DNA base pair ratio; assay type: nucleic-acid assay
endpoint_name: ΔTm

[[record]]
compound = "N=C(NC1CC1)c1ccc(N2CCN(c3ccc(C(=N)NC4CC4)cc3)CC2)cc1"
target_or_test_system = "DNA"
endpoint_name = "ΔTm"
observed_measurement = "14.5 °C"

[[record]]
compound = "N=C(N)c1ccc(N2CCCN(c3ccc(C(=N)N)cc3)CC2)cc1"
target_or_test_system = "DNA"
endpoint_name = "ΔTm"
observed_measurement = "15 °C"

[[record]]
compound = "N=C(N)c1ccc(NC(=O)CCCCC(=O)Nc2ccc(C(=N)N)cc2)cc1"
target_or_test_system = "DNA"
endpoint_name = "ΔTm"
observed_measurement = "8.7 °C"

[[record]]
compound = "c1cc(N2CCN(c3ccc(C4=NCCCN4)cc3)CC2)ccc1C1=NCCCN1"
target_or_test_system = "DNA"
endpoint_name = "ΔTm"
observed_measurement = "12.2 °C"

[[record]]
compound = "CCCCNC(=N)c1ccc(N2CCCN(c3ccc(C(=N)NCCCC)cc3)CC2)cc1"
target_or_test_system = "DNA"
endpoint_name = "ΔTm"
observed_measurement = "11.8 °C"

[[record]]
compound = "N=C(NC1CC1)c1ccc(N2CCCN(c3ccc(C(=N)NC4CC4)cc3)CC2)cc1"
target_or_test_system = "DNA"
endpoint_name = "ΔTm"
observed_measurement = "15.3 °C"

[[record]]
compound = "N=C(N)c1ccc(OCCCCCOc2ccc(C(=N)N)cc2)cc1 [PENTAMIDINE]"
target_or_test_system = "DNA"
endpoint_name = "ΔTm"
observed_measurement = "11.6 °C"

[[record]]
compound = "N#Cc1ccc(N2CCN(c3ccc(C#N)cc3)CC2)cc1"
target_or_test_system = "DNA"
endpoint_name = "ΔTm"
observed_measurement = "0 °C"

[[record]]
compound = "N=C(N)c1ccc(COc2ccccc2OCc2ccc(C(=N)N)cc2)cc1"
target_or_test_system = "DNA"
endpoint_name = "ΔTm"
observed_measurement = "0.1 °C"

[[record]]
compound = "N=C(N)c1ccc(NC(=O)CCCC(=O)Nc2ccc(C(=N)N)cc2)cc1"
target_or_test_system = "DNA"
endpoint_name = "ΔTm"
observed_measurement = "5.6 °C"

[[record]]
compound = "c1cc(N2CCCN(c3ccc(C4=NCCCN4)cc3)CC2)ccc1C1=NCCCN1"
target_or_test_system = "DNA"
endpoint_name = "ΔTm"
observed_measurement = "15.5 °C"

[[record]]
compound = "N=C(N)c1ccc(OC(=O)c2ccc(C(=O)Oc3ccc(C(=N)N)cc3)cc2)cc1 [BIS(4-CARBAMIMIDOYLPHENYL)TEREPHTHALATE]"
target_or_test_system = "DNA"
endpoint_name = "ΔTm"
observed_measurement = "9.9 °C"

[[record]]
compound = "N=C(N)c1ccc(OCc2cccc(COc3ccc(C(=N)N)cc3)c2)cc1"
target_or_test_system = "DNA"
endpoint_name = "ΔTm"
observed_measurement = "14 °C"


----------
In this section, each of the compounds is paired with its reported ΔTm.
assay: Binding affinity to Poly (dA-dT) DNA at 1:5 compound to DNA base pair ratio
endpoint_name: ΔTm (°C)

[[record]]
compound = "N=C(N)c1ccc(NC(=O)CCCCC(=O)Nc2ccc(C(=N)N)cc2)cc1"
endpoint_name = "ΔTm"
observed_measurement = 14.4

[[record]]
compound = "c1cc(N2CCCN(c3ccc(C4=NCCCN4)cc3)CC2)ccc1C1=NCCCN1"
endpoint_name = "ΔTm"
observed_measurement = 21.3

[[record]]
compound = "CCCCNC(=N)c1ccc(N2CCCN(c3ccc(C(=N)NCCCC)cc3)CC2)cc1"
endpoint_name = "ΔTm"
observed_measurement = 13.3

[[record]]
compound = "N=C(N)c1ccc(OC(=O)c2ccc(C(=O)Oc3ccc(C(=N)N)cc3)cc2)cc1 [BIS(4-CARBAMIMIDOYLPHENYL)TEREPHTHALATE]"
endpoint_name = "ΔTm"
observed_measurement = 10.4

[[record]]
compound = "N=C(N)c1ccc(OCCCCCOc2ccc(C(=N)N)cc2)cc1"
endpoint_name = "ΔTm"
observed_measurement = 20.6

[[record]]
compound = "N=C(NC1CC1)c1ccc(N2CCCN(c3ccc(C(=N)NC4CC4)cc3)CC2)cc1"
endpoint_name = "ΔTm"
observed_measurement = 23.6

[[record]]
compound = "c1cc(N2CCN(c3ccc(C4=NCCCN4)cc3)CC2)ccc1C1=NCCCN1"
endpoint_name = "ΔTm"
observed_measurement = 17.9

[[record]]
compound = "N=C(N)c1ccc(OCc2cccc(COc3ccc(C(=N)N)cc3)c2)cc1"
endpoint_name = "ΔTm"
observed_measurement = 23.9

[[record]]
compound = "N=C(NC1CC1)c1ccc(N2CCN(c3ccc(C(=N)NC4CC4)cc3)CC2)cc1"
endpoint_name = "ΔTm"
observed_measurement = 23.9


----------
tested on: NCI-H460; experiment: Cytotoxicity against Homo sapiens (human) NCI-H460 cells at 100 uM after 48 hr by SRB assay relative to control; assay type: cell-based; settings: nci-h460, 48 h
We use 70% as the dividing line for Activity: on or above the line is criterion met, below is criterion not met.

[[record]]
chem_smiles = "N#Cc1ccc(N2CCCN(c3ccc(C#N)cc3)CC2)cc1"
label_value = "criterion met"

[[record]]
chem_smiles = "N#Cc1ccc(N2CCN(c3ccc(C#N)cc3)CC2)cc1"
label_value = "criterion met"

[[record]]
chem_smiles = "N=C(N)c1ccc(N2CCCN(c3ccc(C(=N)N)cc3)CC2)cc1"
label_value = "criterion not met"

[[record]]
chem_smiles = "c1cc(N2CCN(c3ccc(C4=NCCCN4)cc3)CC2)ccc1C1=NCCCN1"
label_value = "criterion not met"

[[record]]
chem_smiles = "CCCCNC(=N)c1ccc(N2CCCN(c3ccc(C(=N)NCCCC)cc3)CC2)cc1"
label_value = "criterion not met"

[[record]]
chem_smiles = "c1cc(N2CCCN(c3ccc(C4=NCCCN4)cc3)CC2)ccc1C1=NCCCN1"
label_value = "criterion not met"

[[record]]
chem_smiles = "N=C(N)c1ccc(COc2ccccc2OCc2ccc(C(=N)N)cc2)cc1"
label_value = "criterion not met"

